# System: NCI-H460
# Experiment Notes: NCI tumour cell line growth inhibition, 48 h
The source made the active and inactive calls. Cut-off read from the data, not from the text of the source: active = GI50 up to about 1.1 µM and inactive = higher.
Assay Readout: GI50

Below are worked cases with known answers.
| Molecule | GI50 |
| --- | --- |
| COc1ccc(CCc2ccccc2CC(=O)O)cc1 | > 100 µM (inactive) |
| C=C1CC(C)(COc2ccc3ccc(=O)oc3c2)OC1=O (stereo unspecified) | 6.62 µM (inactive) |
| O=[N+]([O-])c1cc(F)ccc1S(=O)(=O)c1ccccc1 | > 10 µM (inactive) |
| CCn1c(CCl)nc2c1C(=O)c1ccccc1C2=O | 1.98 µM (inactive) |
| CCOc1ccccc1-c1nc2c(s1)C(=O)c1ccccc1C2=O | 18.7 µM (inactive) |
| COC1=C(N)C(=O)c2nc(C)ccc2C1=O | 2.08 µM (inactive) |
| O=c1[nH]c(=S)[nH]n1C(=S)n1[nH]c(=S)[nH]c1=O | > 100 µM (inactive) |
| Cc1cc2oc(-c3ccccc3)c(C)c(=O)c2c2c1OC(C)(C)S2 | 92.7 µM (inactive) |

Incoming: Requested read-out: GI50. Entry: CC(C)(C)c1ccc(C(C)(C)C)c(N2C(=O)[C@@H]3[C@@H]4C=C[C@@H](C4)[C@]3(C)C2=O)c1
Outgoing: 42 µM (inactive)

Incoming: Requested read-out: GI50. Entry: CCSC1=N/C(=C/c2ccccc2O)C(=O)N1
Outgoing: > 100 µM (inactive)

Incoming: Requested read-out: GI50. Entry: COCC1OC(OC2C3=C(C(C)C)CCC3(C)/C=C3\C(CCC3(O)COC)C(C)C2O)C(O)C2OC3OC12OC3(C)C1CO1 (stereo unspecified)
Outgoing: 32.7 µM (inactive)

These entries and their values trace back to ChEMBL document CHEMBL1201862.
